Taken from BindingDB's records for doi:10.1021/acs.jmedchem.7b01525.

molecular target: Urotensin-2 receptor (Rattus norvegicus); experiment: Allosteric modulation of urotensin-2 receptor in Sprague-Dawley rat thoracic aorta assessed as change in human urotensin-2-mediated aortic ring contraction by measuring urotensin-2 pEC50 at 10^-5M preincubated for 15 mins followed by urotensin-2 addition (Rvb = 8.61 +/- 0.05 No_unit)
Sequence (P49684 whole entry): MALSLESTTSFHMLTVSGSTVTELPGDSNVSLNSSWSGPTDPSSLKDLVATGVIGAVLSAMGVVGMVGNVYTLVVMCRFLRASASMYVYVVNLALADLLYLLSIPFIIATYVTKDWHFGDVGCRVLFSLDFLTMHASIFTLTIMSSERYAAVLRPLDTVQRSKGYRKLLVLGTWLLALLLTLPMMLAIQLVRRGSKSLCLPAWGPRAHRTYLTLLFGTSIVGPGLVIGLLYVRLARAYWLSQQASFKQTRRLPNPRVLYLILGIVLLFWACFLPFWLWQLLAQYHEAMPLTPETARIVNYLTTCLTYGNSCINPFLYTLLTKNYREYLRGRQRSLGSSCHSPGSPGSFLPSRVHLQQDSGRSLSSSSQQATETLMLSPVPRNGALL
pEC50: −log10 of the molar value.
READOUT_TYPE: pEC50

Consider "COc1ccc(CCC2=NN(CCCN)C(=O)N(Cc3ccc4ccccc4c3)c3ccccc32)cc1" . Its measured pEC50 is 8.40

Consider "NCCCN1N=C(CCc2nc3ccccc3s2)c2ccccc2N(Cc2ccc3ccccc3c2)C1=O" . Its measured pEC50 is 8.48

Consider "CNCCCN1N=C(CCc2nc3ccccc3s2)c2ccccc2N(Cc2ccc(-c3ccccc3)cc2)C1=O" . Its measured pEC50 is 8.39

A = NCCCN1N=C(CCc2nc3ccccc3s2)c2ccccc2N(Cc2ccc(-c3ccccc3)cc2)C1=O
B = NCCCN1N=C(CCc2nc3ccccc3s2)c2ccccc2N(Cc2cccc3ccccc23)C1=O
# returns the entry with the larger pEC50; inputs A and B Indicate which entry you chose by stating its label.
A

I = CNCCCCN1N=C(CCc2nc3ccccc3s2)c2ccccc2N(Cc2ccc3ccccc3c2)C1=O
II = NCCCCN1N=C(C=Cc2ccc(O)cc2)c2ccccc2N(Cc2ccc3ccccc3c2)C1=O
# returns the entry with the larger pEC50; inputs I and II Indicate which entry you chose by stating its label.
I

P = CNCCCCN1N=C(CCc2nc3ccccc3s2)c2ccccc2N(Cc2cccc3ccccc23)C1=O
Q = NCCCN1N=C(C=Cc2ccc(O)cc2)c2ccccc2N(Cc2ccc3ccccc3c2)C1=O
Compare pEC50: is it lower for P or for Q ? Indicate which entry you chose by stating its label.
Q
(Q: 7.92, P: 8.39)

1 = NCCCN1N=C(CCc2ccc(O)cc2)c2ccccc2N(Cc2ccc3ccccc3c2)C1=O
2 = CNCCCCN1N=C(CCc2nc3ccccc3s2)c2ccccc2N(Cc2ccc(-c3ccccc3)cc2)C1=O
3 = NCCCCN1N=C(CCc2nc3ccccc3s2)c2ccccc2N(Cc2ccc(-c3ccccc3)cc2)C1=O
Ordering: ascending pEC50. List each label, following the requested order.
3, 2, 1

====

biological target: UniProt Q9UKP6; experiment: Allosteric modulation of human urotensin-2 receptor expressed in HEK293 cells assessed as change in URP-induced G12 activation by measuring URP pEC50 at 10^-5 M preincubated for 30 mins followed by URP addition by BRET assay (Rvb = 6.75 +/- 0.19 No_unit)
READOUT_TYPE: EC50 (nM)

Consider "NCCCN1N=C(CCc2nc3ccccc3s2)c2ccccc2N(Cc2ccc3ccccc3c2)C1=O" . Its measured EC50 is 1950

a = NCCCCN1N=C(CCc2ccc(O)cc2)c2ccccc2N(Cc2ccc3ccccc3c2)C1=O
b = COc1ccc(C=CC2=NN(CCCCN)C(=O)N(Cc3ccc(-c4ccccc4)cc3)c3ccccc32)cc1
c = NCCCCN1N=C(C=Cc2ccc(O)cc2)c2ccccc2N(Cc2ccc(-c3ccccc3)cc2)C1=O
Ordering: ascending EC50. List each label, following the requested order.
c, a, b
(c: 117 nM, a: 1100 nM, b: 1740 nM)

====

Molecular target: UniProt Q9UKP6
Sequence (Q9UKP6 whole entry): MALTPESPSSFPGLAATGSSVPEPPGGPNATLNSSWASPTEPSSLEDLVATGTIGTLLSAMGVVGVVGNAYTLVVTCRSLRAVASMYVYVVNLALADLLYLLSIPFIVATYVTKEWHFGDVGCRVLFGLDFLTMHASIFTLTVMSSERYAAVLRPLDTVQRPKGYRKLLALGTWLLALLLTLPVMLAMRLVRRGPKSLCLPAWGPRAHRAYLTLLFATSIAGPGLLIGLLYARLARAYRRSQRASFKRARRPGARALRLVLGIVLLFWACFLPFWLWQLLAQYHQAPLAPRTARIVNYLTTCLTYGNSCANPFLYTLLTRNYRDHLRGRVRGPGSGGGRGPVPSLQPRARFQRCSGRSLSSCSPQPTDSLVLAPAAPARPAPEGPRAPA
Experiment: Allosteric modulation of human urotensin-2 receptor expressed in HEK293 cells assessed as change in human urotensin-2-induced Gq activation by measuring urotensin-2 pEC50 at 10^-5 M preincubated for 30 mins followed by urotensin-2 addition by BRET assay (Rvb = 7.88 +/- 0.07 No_unit)
READOUT_TYPE: EC50 (nM)

Examples with answers:
Consider "NCCCN1N=C(CCc2nc3ccccc3s2)c2ccccc2N(Cc2ccc3ccccc3c2)C1=O" . Its measured EC50 is 11

Consider "NCCCCN1N=C(CCc2ccc(O)cc2)c2ccccc2N(Cc2ccc3ccccc3c2)C1=O" . Its measured EC50 is 11

I = COc1ccc(C=CC2=NN(CCCCN)C(=O)N(Cc3ccc(-c4ccccc4)cc3)c3ccccc32)cc1
II = NCCCCN1N=C(C=Cc2ccc(O)cc2)c2ccccc2N(Cc2ccc(-c3ccccc3)cc2)C1=O
# returns the entry with the larger EC50; inputs I and II Indicate which entry you chose by stating its label.
II
